# ASSAY TARGET: recombinant ERO1A (Mus musculus)
# Construct: GST-SMT3-mouse ERO1A (residues 43–464); GST-SMT3 (GST-SUMO) (N, cleaved yes); made in house; host or cells: E. coli Rosetta DE3 (Novagen)
# Sequence (Q8R180 43-464): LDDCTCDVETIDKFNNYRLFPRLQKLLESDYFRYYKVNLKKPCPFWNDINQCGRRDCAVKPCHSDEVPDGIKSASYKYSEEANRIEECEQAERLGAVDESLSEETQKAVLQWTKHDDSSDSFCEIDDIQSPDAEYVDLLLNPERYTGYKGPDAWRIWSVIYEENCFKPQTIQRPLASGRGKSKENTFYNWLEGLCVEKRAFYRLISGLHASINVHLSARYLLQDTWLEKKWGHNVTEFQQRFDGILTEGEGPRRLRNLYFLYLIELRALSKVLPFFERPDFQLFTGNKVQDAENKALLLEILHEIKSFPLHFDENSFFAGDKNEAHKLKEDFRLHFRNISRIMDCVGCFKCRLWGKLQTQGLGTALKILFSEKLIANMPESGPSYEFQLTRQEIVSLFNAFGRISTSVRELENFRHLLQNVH
# PROCEDURE SUMMARY: AUR-based kinetic assay of ERO1A activity (recombinant ERO1A and PDIA1, HRP, Amplex Ultra Red)
# Format: biochemical
# MEASUREMENT CONTEXT: compounds dissolved in DMSO, preincubated with ERO1A; Table 1 in Fig. 3; NA stands for not active; read-out: IC50
Exercise: for every item that follows, state its recorded pIC50.
Answers are plain numbers, as −log10 of the molar value.

State recorded pIC50 for all listed compounds.
1. O=C(O)c1cc(N2N=C(C(F)(F)F)/C(=C\c3ccc(-c4ccccc4)s3)C2=O)ccc1Cl [I40]
2. O=C1/C(=C/c2ccc(-c3ccccc3)o2)C(C(F)(F)F)=NN1c1cc(F)ccc1F [I30]
3. O=C1/C(=C/c2ccc(-c3ccccc3)o2)C(C(F)(F)F)=NN1c1cccnc1 [I32]
4. O=C(O)c1cc(N2N=C(C(F)(F)F)/C(=C\c3ccc(-c4ccccc4)o3)C2=O)ccc1Cl [EN460, reference compound]

[4.92, 4.97, 4.72, 5.22]

Lab note: each compound below needs its pIC50 filled in.
1. COc1cccc(-c2ccc(/C=C3/C(=O)N(c4ccc(Cl)c(C(=O)O)c4)N=C3C(F)(F)F)o2)c1 [I39]
2. Cc1ccccc1N1N=C(C(F)(F)F)/C(=C\c2ccc(-c3ccccc3)o2)C1=O [I25]
3. O=C1/C(=C/c2ccc(-c3ccccc3)o2)C(C(F)(F)F)=NN1c1cccc(S(=O)(=O)O)c1 [I34]

1. 4.98
2. 4.75
3. 5.25
